Target: human CB2 receptor (Homo sapiens, UniProt P34972)
Sequence (P34972 whole entry): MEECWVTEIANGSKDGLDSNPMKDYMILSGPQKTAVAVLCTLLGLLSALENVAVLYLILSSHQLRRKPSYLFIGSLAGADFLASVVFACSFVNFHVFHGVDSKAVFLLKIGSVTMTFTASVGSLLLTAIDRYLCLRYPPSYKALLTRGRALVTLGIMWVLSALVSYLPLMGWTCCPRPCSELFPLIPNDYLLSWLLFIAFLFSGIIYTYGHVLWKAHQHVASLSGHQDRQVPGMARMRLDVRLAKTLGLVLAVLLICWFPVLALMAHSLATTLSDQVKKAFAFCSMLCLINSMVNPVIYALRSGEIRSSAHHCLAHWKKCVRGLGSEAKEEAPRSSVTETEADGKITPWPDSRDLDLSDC
Assay: [35S]GTPγS binding assay, CB2 receptor agonistic activity
Type: biochemical
Settings: EC50 ratio of the CB1 to CB2
Procedure: For the evaluation of CB1/CB2 cannabinoid receptor activity, [^35S]GTPγS binding assays were performed. These assays were performed at ADME and Tox. Research Institute, Sekisui Medical Co., Ltd. (Tokai-mura, Ibaraki, Japan).
Field 'label' (enum: YES / NO). Set to YES when Selective index (CB1/CB2) is strictly under 20; else NO.

| compound | group.label |
| --- | --- |
| NC(=O)[C@@H](Cc1ccccc1)NC(=O)c1nn(CC2CCCCC2)c2ccccc12 | NO |
| CCOC(=O)[C@@H](NC(=O)c1nn(CCCCCF)c2ccccc12)C(C)C [(S)5F-EMB-PINACA] | YES |
| CCOC(=O)[C@H](NC(=O)c1nn(Cc2ccc(F)cc2)c2ccccc12)C(C)C [(R)EMB-FUBINACA] | NO |
| CC(C)[C@@H](NC(=O)c1nn(Cc2ccccc2F)c2ccccc12)C(N)=O [(R)AB-FUBINACA 2-fluorobenzyl isomer] | NO |
| CC(C)[C@H](NC(=O)c1nn(Cc2ccccc2F)c2ccccc12)C(N)=O [(S)AB-FUBINACA 2-fluorobenzyl isomer] | YES |
| CCOC(=O)[C@@H](NC(=O)c1nn(Cc2ccc(F)cc2)c2ccccc12)C(C)C [(S)EMB-FUBINACA] | YES |

query: Is it true that Selective index (CB1/CB2) reported for COC(=O)[C@@H](NC(=O)c1cn(Cc2ccc(F)cc2)c2ccccc12)C(C)(C)C [(S)MDMB-FUBICA] is less than 20?
result: YES

query: Is it true that Selective index (CB1/CB2) reported for NC(=O)[C@H](Cc1ccccc1)NC(=O)c1nn(CC2CCCCC2)c2ccccc12 is less than 20?
result: NO

query: Is it true that Selective index (CB1/CB2) reported for CCOC(=O)[C@H](NC(=O)c1nn(CCCCCF)c2ccccc12)C(C)C [(R)5F-EMB-PINACA] is less than 20?
result: NO
